# assayTarget: CRBN-DDB1 (Homo sapiens (Human), UniProt Q96SW2)
# Sequence (Q96SW2 whole entry): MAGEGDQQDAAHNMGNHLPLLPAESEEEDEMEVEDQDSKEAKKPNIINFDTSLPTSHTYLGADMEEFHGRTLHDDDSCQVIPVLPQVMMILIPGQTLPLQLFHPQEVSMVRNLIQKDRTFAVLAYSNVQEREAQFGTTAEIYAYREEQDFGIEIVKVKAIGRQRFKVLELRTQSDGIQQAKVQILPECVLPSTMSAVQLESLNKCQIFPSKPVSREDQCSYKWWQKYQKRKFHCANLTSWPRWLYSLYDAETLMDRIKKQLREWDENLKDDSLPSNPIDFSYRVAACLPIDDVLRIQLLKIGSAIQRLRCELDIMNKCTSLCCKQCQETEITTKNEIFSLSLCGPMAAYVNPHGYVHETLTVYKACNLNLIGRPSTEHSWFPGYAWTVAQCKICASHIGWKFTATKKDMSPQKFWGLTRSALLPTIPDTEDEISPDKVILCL
# Sequence (Q16531 whole entry partner): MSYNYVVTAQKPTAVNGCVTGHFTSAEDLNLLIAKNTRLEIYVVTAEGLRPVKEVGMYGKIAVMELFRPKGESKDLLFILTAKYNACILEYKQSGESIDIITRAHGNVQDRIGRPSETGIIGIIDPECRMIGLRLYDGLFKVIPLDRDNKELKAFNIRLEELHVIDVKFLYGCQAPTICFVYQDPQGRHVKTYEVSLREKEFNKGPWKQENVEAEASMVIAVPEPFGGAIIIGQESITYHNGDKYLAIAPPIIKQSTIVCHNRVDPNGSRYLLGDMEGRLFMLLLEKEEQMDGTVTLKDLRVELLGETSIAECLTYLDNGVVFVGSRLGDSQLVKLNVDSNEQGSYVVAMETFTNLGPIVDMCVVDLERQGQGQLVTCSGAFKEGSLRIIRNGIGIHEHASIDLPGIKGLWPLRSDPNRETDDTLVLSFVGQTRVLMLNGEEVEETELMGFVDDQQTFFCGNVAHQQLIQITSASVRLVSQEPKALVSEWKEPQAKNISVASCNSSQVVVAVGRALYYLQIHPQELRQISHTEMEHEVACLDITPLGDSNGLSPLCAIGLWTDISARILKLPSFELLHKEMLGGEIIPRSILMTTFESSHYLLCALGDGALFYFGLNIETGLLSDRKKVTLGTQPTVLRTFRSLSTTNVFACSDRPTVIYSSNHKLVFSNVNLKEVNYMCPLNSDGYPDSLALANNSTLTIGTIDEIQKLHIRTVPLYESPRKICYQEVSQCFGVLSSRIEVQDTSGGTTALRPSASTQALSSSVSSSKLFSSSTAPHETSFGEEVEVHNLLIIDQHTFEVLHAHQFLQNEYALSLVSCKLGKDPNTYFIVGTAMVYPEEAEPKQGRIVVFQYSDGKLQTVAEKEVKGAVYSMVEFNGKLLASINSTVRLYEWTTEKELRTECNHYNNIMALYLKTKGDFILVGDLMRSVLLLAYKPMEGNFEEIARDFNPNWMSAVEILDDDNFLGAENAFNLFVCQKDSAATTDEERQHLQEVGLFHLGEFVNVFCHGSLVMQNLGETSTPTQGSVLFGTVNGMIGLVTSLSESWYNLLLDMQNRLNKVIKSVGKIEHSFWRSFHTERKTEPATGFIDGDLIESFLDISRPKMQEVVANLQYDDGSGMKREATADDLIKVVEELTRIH
# assayExplanation: Compound binding to CRBN by HTRF assay
# conditionSet: HTRF class; Cereblon binding
pEC50: −log10 of the molar value.
testReadout: pEC50

INSERT INTO results (compound, testreadout, measuredresult) VALUES
  ('Cc1cnc(C(C)(C)C(=O)NCc2cc(F)c(C3CCC(=O)NC3=O)c(Cl)c2)o1 (centres unmarked) [Compound 270]', 'pEC50', '6.00 to 7.00'),
  ('CC(C)(C(=O)NCc1cc(Cl)c(C2CCC(=O)NC2=O)c(Cl)c1)c1cccc(S(N)(=O)=O)c1 (centres unmarked) [Compound 60]', 'pEC50', '≥ 7.00'),
  ('CC(C)(C(=O)NCc1cc(Cl)c(C2CCC(=O)NC2=O)c(Cl)c1)c1ncc(C(=O)O)cn1 (centres unmarked) [Compound 235]', 'pEC50', '6.00 to 7.00'),
  ('COc1ccc(C(C)(C)C(=O)NCc2cc(Cl)c(C3CCC(=O)NC3=O)c(Cl)c2)nn1 (centres unmarked) [Compound 204]', 'pEC50', '≥ 7.00'),
  ('CC(C)(C(=O)NCc1cc(F)c(C2CCC(=O)NC2=O)c(Cl)c1)c1ccccc1 (centres unmarked) [Compound 31]', 'pEC50', '6.00 to 7.00'),
  ('CN(C)c1ccc(C(C)(C)C(=O)NCc2cc(Cl)c(C3CCC(=O)NC3=O)c(Cl)c2)cc1 (centres unmarked) [Compound 71]', 'pEC50', '6.00 to 7.00'),
  ('CC(C)(C(=O)NCc1cc(Cl)c(C2CCC(=O)NC2=O)c(Cl)c1)c1cccc(C#N)c1 (centres unmarked) [Compound 21]', 'pEC50', '≥ 7.00'),
  ('COCc1ccc(C(C)(C)C(=O)NCc2cc(Cl)c(C3CCC(=O)NC3=O)c(Cl)c2)nn1 (centres unmarked) [Compound 228]', 'pEC50', '6.00 to 7.00');

The values you see were collected from patent US20250243180A1.
